# target: Histamine H3 receptor (Rattus norvegicus)
# test context: Striatum; filed as antagonist; 10e-5 M
# Description: Antagonistic activity, H3-receptor dependent activation of G-proteins with GTP gamma-[35S] autoradiography of rat striatal tissue sections. at 10e-5 M conc.; maximal response

{"line notation": "NCCc1c[nH]cn1.N[C@H](COCC1CCCCC1)Cc1c[nH]cn1", "target": "Histamine H3 receptor (Rattus norvegicus)", "Antagonist activity": "Antagonist"}
{"line notation": "NCCc1c[nH]cn1.N[C@H](COCc1ccccc1)Cc1c[nH]cn1", "target": "Histamine H3 receptor (Rattus norvegicus)", "Antagonist activity": "Antagonist"}
{"line notation": "NCCc1c[nH]cn1.N[C@@H](COCc1ccccc1)Cc1c[nH]cn1", "target": "Histamine H3 receptor (Rattus norvegicus)", "Antagonist activity": "Antagonist"}
{"line notation": "NCCc1c[nH]cn1.N[C@@H](COCC1CCCCC1)Cc1c[nH]cn1", "target": "Histamine H3 receptor (Rattus norvegicus)", "Antagonist activity": "Antagonist"}
